Provide the recorded CC50 for the entries that follow.
- System: PANC-1
- Assay name: Cytotoxicity against human PANC1 cells after 48 hrs by SRB assay
- Assay type: functional
- Condition notes: PANC-1, 48 h, read-out: LC50 (the source's name)
One number for each entry, in nM.

Record excerpt, results attached:
- Smiles representation: "C/C=C1\\NC(=O)[C@H](Cc2ccccc2)NC(=O)[C@@H](C(C)C)NC(=O)[C@@H]([C@H](C)CC)NC(=O)[C@H](NC(=O)[C@H](NC(=O)[C@H](CCCNC(=O)CCC2CCCCC2)NC(=O)[C@H]2CCCN2C(=O)[C@H](NC(=O)[C@@H](NC(=O)[C@@H](NC(=O)[C@H](NC(=O)CCCC(C)C)C(C)C)[C@@H](C)O)C(C)C)C(C)C)[C@H](C)CC)[C@H](C)OC(=O)[C@H](C(C)C)NC1=O"
  Experimental target: "PANC-1"
  CC50 (nM): 163
- Smiles representation: "C/C=C1\\NC(=O)[C@H](Cc2ccccc2)NC(=O)[C@@H](C(C)C)NC(=O)[C@@H]([C@H](C)CC)NC(=O)[C@H](NC(=O)[C@H](NC(=O)[C@H](CCCN)NC(=O)[C@H]2CCCN2C(=O)[C@H](NC(=O)[C@@H](NC(=O)[C@@H](NC(=O)[C@@H](Cc2ccccc2)NC(=O)CCCC(C)C)[C@@H](C)O)C(C)C)C(C)C)[C@H](C)CC)[C@H](C)OC(=O)[C@H](C(C)C)NC1=O"
  Experimental target: "PANC-1"
  CC50 (nM): 2450
- Smiles representation: "C/C=C1\\NC(=O)[C@H](Cc2ccccc2)NC(=O)[C@@H](C(C)C)NC(=O)[C@@H]([C@H](C)CC)NC(=O)[C@H](NC(=O)[C@H](NC(=O)[C@H](CCCN)NC(=O)[C@H]2CCCN2C(=O)[C@H](NC(=O)[C@@H](NC(=O)[C@@H](NC(=O)[C@@H](CCC(N)=O)NC(=O)CCCC(C)C)[C@@H](C)O)C(C)C)C(C)C)[C@H](C)CC)[C@H](C)OC(=O)[C@H](C(C)C)NC1=O"
  Experimental target: "PANC-1"
  CC50 (nM): 361

Working through the 5 compounds below one at a time, give CC50 for each.
1. C/C=C1\NC(=O)[C@H](Cc2c(F)c(F)c(F)c(F)c2F)NC(=O)[C@@H](C(C)C)NC(=O)[C@@H]([C@H](C)CC)NC(=O)[C@H](NC(=O)[C@H](NC(=O)[C@H](CCCN)NC(=O)[C@H]2CCCN2C(=O)[C@H](NC(=O)[C@@H](NC(=O)[C@@H](NC(=O)[C@H](NC(=O)CC[C@@H](C)CC)C(C)C)[C@@H](C)O)C(C)C)C(C)C)[C@H](C)CC)[C@H](C)OC(=O)[C@H](C(C)C)NC1=O
2. C/C=C1\NC(=O)[C@H](Cc2ccccc2)NC(=O)[C@@H](C(C)C)NC(=O)[C@@H]([C@H](C)CC)NC(=O)[C@H](NC(=O)[C@H](NC(=O)[C@H](CCCN)NC(=O)[C@H]2CCCN2C(=O)[C@H](NC(=O)[C@H](CCC2CCCCC2)NC(=O)[C@@H](NC(=O)[C@@H](CC2CCCCC2)NC(=O)CCCC(C)C)[C@@H](C)O)C(C)C)[C@H](C)CC)[C@H](C)OC(=O)[C@H](C(C)C)NC1=O
3. C/C=C1\NC(=O)[C@H](Cc2ccccc2)NC(=O)[C@@H](C(C)C)NC(=O)[C@@H]([C@H](C)CC)NC(=O)[C@H](NC(=O)[C@H](NC(=O)[C@H](CCCN)NC(=O)[C@H]2CCCN2C(=O)[C@H](NC(=O)[C@@H](NC(=O)[C@@H](NC(=O)[C@H](NC(=O)CC[C@@H](C)[C@H]2CC[C@H]3[C@@H]4CC[C@@H]5C[C@H](O)CC[C@]5(C)[C@H]4CC[C@]23C)C(C)C)[C@@H](C)O)C(C)C)C(C)C)[C@H](C)CC)[C@H](C)OC(=O)[C@H](C(C)C)NC1=O
4. C/C=C1\NC(=O)[C@H](Cc2ccccc2)NC(=O)[C@@H](C(C)C)NC(=O)[C@@H]([C@H](C)CC)NC(=O)[C@H](NC(=O)[C@H](NC(=O)[C@H](CCCN)NC(=O)[C@H]2CCCN2C(=O)[C@H](NC(=O)[C@@H](NC(=O)[C@@H](NC(=O)[C@@H](C)NC(=O)CCCC(C)C)[C@@H](C)O)C(C)C)C(C)C)[C@H](C)CC)[C@H](C)OC(=O)[C@H](C(C)C)NC1=O
5. C/C=C1\NC(=O)[C@H](Cc2ccccc2)NC(=O)[C@@H](C(C)C)NC(=O)[C@@H]([C@H](C)CC)NC(=O)[C@H](NC(=O)[C@H](NC(=O)[C@H](CCCN)NC(=O)[C@H]2CCCN2C(=O)[C@H](NC(=O)[C@@H](NC(=O)[C@H](CCCN)NC(=O)[C@H](NC(=O)CCCC(C)C)C(C)C)C(C)C)C(C)C)[C@H](C)CC)[C@H](C)OC(=O)[C@H](C(C)C)NC1=O

1: 2810; 2: 1640; 3: 5520; 4: 2180; 5: 2240

Working through the 2 compounds below one at a time, give CC50 for each.
1. C/C=C1\NC(=O)[C@H](Cc2ccc([N+](=O)[O-])cc2)NC(=O)[C@@H](C(C)C)NC(=O)[C@@H]([C@H](C)CC)NC(=O)[C@H](NC(=O)[C@H](NC(=O)[C@H](CCCN)NC(=O)[C@H]2CCCN2C(=O)[C@H](NC(=O)[C@@H](NC(=O)[C@@H](NC(=O)[C@H](NC(=O)CC[C@@H](C)CC)C(C)C)[C@@H](C)O)C(C)C)C(C)C)[C@H](C)CC)[C@H](C)OC(=O)[C@H](C(C)C)NC1=O
2. CC[C@@H](C)[C@@H](NC(=O)[C@H](CCCN)NC(=O)[C@H]1CCCN1C(=O)[C@H](NC(=O)[C@@H](NC(=O)[C@@H](NC(=O)[C@H](NC(=O)CCCC(C)C)C(C)C)[C@@H](C)O)C(C)C)C(C)C)C(=O)N[C@H]1C(=O)N[C@H]([C@H](C)CC)C(=O)N[C@H](C(C)C)C(=O)N[C@@H](Cc2ccccc2)C(=O)NCC(=O)N[C@@H](C(C)C)C(=O)O[C@H]1C

1580
1810

====

- System: DU-145
- Assay name: Cytotoxicity against human DU145 cells after 48 hrs by SRB assay
- Format: functional, cell-based
- Condition notes: Homo sapiens, DU-145, 48 h
Provide the recorded pIC50 for the entries that follow.
Answers are plain numbers, as −log10 of the molar value.

Record excerpt, results attached:
- Smiles representation: "C/C=C1\\NC(=O)[C@H](Cc2ccccc2)NC(=O)[C@@H](C(C)C)NC(=O)[C@@H]([C@H](C)CC)NC(=O)[C@H](NC(=O)[C@H](NC(=O)[C@H](CCCN)NC(=O)[C@H]2CCCN2C(=O)[C@H](NC(=O)[C@@H](NC(=O)[C@@H](NC(=O)[C@H](NC(=O)CCCN(C)C)C(C)C)[C@@H](C)O)C(C)C)C(C)C)[C@H](C)CC)[C@H](C)OC(=O)[C@H](C(C)C)NC1=O"
  Recorded value: 5.17
- Smiles representation: "C/C=C1\\NC(=O)[C@H](Cc2ccccc2)NC(=O)[C@@H](C(C)C)NC(=O)[C@@H]([C@H](C)CC)NC(=O)[C@H](NC(=O)[C@H](NC(=O)[C@H](CCCN)NC(=O)[C@H]2CCCN2C(=O)[C@@H](NC(=O)[C@H](NC(=O)[C@@H](NC(=O)[C@H](NC(=O)CCCC(C)C)C(C)C)[C@@H](C)O)C(C)C)C(C)C)[C@H](C)CC)[C@H](C)OC(=O)[C@H](C(C)C)NC1=O"
  Recorded value: 5.47

Working through the 2 compounds below one at a time, give pIC50 for each.
1. C/C=C1\NC(=O)[C@H](Cc2ccccc2)NC(=O)[C@@H](C(C)C)NC(=O)[C@@H]([C@H](C)CC)NC(=O)[C@H](NC(=O)[C@H](NC(=O)[C@@H](NC(=O)[C@@H](NC(=O)[C@H](NC(=O)CCCC(C)C)C(C)C)[C@@H](C)O)C(C)C)[C@H](C)CC)[C@H](C)OC(=O)[C@H](C(C)C)NC1=O
2. C/C=C1\NC(=O)[C@H](Cc2ccccc2)NC(=O)[C@@H](C(C)C)NC(=O)[C@@H]([C@H](C)CC)NC(=O)[C@H](NC(=O)[C@H](NC(=O)[C@H]2CCCN2C(=O)[C@H](NC(=O)[C@@H](NC(=O)[C@@H](NC(=O)[C@H](NC(=O)CCCC(C)C)C(C)C)[C@@H](C)O)C(C)C)C(C)C)[C@H](C)CC)[C@H](C)OC(=O)[C@H](C(C)C)NC1=O

1. 5.37
2. 5.44
